Target: Cdc7/Dbf4 (Homo sapiens, UniProt O00311)
Sequence (O00311 whole entry): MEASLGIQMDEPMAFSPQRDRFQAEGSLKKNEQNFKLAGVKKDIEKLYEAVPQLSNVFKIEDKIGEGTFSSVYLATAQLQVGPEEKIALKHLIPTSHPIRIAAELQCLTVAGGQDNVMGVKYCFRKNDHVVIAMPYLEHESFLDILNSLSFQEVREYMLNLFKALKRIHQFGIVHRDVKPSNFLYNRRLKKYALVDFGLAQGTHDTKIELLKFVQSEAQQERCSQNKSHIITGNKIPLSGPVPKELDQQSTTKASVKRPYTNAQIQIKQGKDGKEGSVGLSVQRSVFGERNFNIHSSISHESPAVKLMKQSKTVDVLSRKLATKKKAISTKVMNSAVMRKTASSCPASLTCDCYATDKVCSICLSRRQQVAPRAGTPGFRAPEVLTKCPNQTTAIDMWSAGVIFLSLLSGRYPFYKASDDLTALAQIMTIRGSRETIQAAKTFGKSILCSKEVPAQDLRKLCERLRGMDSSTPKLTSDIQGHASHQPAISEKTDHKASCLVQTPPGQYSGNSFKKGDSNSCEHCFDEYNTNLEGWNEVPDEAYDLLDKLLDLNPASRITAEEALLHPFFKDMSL
Sequence (Q9UBU7 whole entry partner): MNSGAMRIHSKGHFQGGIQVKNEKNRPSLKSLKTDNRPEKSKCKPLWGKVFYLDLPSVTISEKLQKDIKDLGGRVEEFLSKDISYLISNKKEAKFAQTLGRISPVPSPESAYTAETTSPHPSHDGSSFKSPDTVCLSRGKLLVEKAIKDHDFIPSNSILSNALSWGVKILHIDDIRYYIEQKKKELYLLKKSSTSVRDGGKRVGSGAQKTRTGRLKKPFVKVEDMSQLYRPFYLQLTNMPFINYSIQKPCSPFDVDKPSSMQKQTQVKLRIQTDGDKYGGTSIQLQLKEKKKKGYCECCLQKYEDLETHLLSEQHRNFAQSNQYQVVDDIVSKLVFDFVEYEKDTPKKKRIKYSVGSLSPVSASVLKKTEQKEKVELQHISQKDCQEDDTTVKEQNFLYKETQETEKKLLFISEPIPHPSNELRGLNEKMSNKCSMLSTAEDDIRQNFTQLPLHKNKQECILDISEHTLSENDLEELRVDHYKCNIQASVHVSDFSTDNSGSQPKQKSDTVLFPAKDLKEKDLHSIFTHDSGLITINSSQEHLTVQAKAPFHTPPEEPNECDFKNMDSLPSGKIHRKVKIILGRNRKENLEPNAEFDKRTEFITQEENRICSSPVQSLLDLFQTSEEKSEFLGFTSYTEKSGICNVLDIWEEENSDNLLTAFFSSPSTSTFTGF
Assay: Cdc7 Biochemical Assay Method 3: Cdc7/Dbf4 Enzyme TR-FRET Assay measuring pS40MCM2
Conditions: 1 μM ATP, read-out: Biochemical Method 3 (pIC50) (converted)
ASSAY_READOUT: IC50 (nM)

Worked set:
COMPOUND	MEASURE_UNIT	IC50
C[C@H]1COCCN1c1nc(-c2ccnc(F)c2)[nH]c(=O)c1Cl	nM	1.23
O=c1[nH]c(-c2ccncc2)nc(N2CCNC(c3ccc(Cl)cc3)C2)c1Cl (stereo not drawn)	nM	1.91

(a) CC(C)(C)[C@H]1CN(c2nc(-c3ccncc3)[nH]c(=O)c2F)CCN1
(b) N#CC[C@H]1CN(c2nc(-c3ccnc(F)c3)[nH]c(=O)c2Cl)CCN1
(c) O=c1[nH]c(-c2ccnc(F)c2)nc(OC2COC2)c1Cl
(d) C[C@@H]1CN(c2nc(-c3ccnc(F)c3)[nH]c(=O)c2Cl)[C@H](C)CO1
Request: Sort the 4 compounds by IC50; largest first, smallest last. Order the labels as requested and give them as your answer.
Result: c, d, b, a
(c: 389 nM, d: 2.09 nM, b: 1.29 nM, a: 0.724 nM)

(P) C[C@H]1CCCCN1c1nc(-c2ccnc(F)c2)[nH]c(=O)c1Cl
(Q) O=c1[nH]c(-c2ccnc(F)c2)nc(N2CCOC3(CCOCC3)C2)c1Cl
Request: Of the pair P and Q , name the member with the lesser recorded IC50. Write down the label of the entry you select.
Result: P
(P: 0.871 nM, Q: 11.5 nM)
